# test_summary: Efflux ratio of apparent permeability from basolateral to apical membrane over apical to basolateral membrane in human Caco2 cells
# Format: ADME, cell-based
# assay_conditions: Caco-2
experimental_readout: efflux ratio

Give a short answer stating reported efflux ratio for "CC(C)(C)Oc1cc(CCC(C)(C)N2Cc3ccc(S(C)(=O)=O)cc3C2)ccc1O" .
0.95

====

# test_summary: Unbound brain-to-plasma concentration ratio measured after 24 hrs
# Format: ADME, cell-free
# assay_conditions: brain and plasma, read-out: K(p,uu,brain)
experimental_readout: Kp uu at 24 h
Please state the value as a number alone, without comment.

Give recorded Kp uu at 24 h. "CC(C)(C)Oc1cc(CCC(C)(C)N2Cc3ccc(S(C)(=O)=O)cc3C2)ccc1O"
6.75
